target: Fatty-acid amide hydrolase 1 (Rattus norvegicus)
Sequence (P97612 whole entry): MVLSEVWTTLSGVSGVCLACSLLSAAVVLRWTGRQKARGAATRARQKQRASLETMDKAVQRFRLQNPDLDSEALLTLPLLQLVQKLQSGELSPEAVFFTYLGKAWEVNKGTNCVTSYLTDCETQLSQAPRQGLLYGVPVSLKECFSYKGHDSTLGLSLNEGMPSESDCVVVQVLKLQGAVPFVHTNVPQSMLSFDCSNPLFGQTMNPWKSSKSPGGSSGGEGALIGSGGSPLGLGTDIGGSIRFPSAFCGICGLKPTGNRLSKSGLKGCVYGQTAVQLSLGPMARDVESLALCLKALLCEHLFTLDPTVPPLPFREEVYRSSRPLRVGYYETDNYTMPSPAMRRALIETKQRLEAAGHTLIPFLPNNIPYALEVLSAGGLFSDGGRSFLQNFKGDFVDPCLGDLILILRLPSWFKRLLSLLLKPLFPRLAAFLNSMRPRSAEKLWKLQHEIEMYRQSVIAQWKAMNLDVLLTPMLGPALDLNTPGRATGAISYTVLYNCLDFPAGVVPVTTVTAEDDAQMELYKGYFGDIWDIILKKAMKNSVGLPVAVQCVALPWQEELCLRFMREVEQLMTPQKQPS
measured-attribute: pIC50
Value format note: pIC50 is -log10 of concentration (mol/L); just state the number.

Example molecules with recorded pIC50:
{"columns": ["smi", "pIC50"],
 "data": [
  ["O=C(Nc1ccccn1)N1CCN(Cc2cccc(Oc3ccc(Cl)cc3)c2)CC1", 6.33],
  ["O=C(Nc1ccncc1)N1CCN(Cc2cccc(Oc3ccc(Cl)cc3)c2)CC1", 6.28]
]}

Query block: Provide measured pIC50 value, entry: `O=C(Nc1ccccc1)N1CCN(Cc2cccc(Oc3ccccc3)c2)CC1`
Result block: 5.18

###

assay: Apparent volume of distribution in Beagle dog at 1 mg/kg, iv and 5 mg/kg, po; type: ADME, organism-based, Canis lupus familiaris; settings: in vivo, read-out: Vz
measured-attribute: Vd (L/kg)
# unit: L/kg | format: bare number

Query block: Provide measured Vd value, entry: `O=C(Nc1cccnc1)N1CCN(Cc2cccc(Oc3ccc(Cl)cc3)c2)CC1`
Result block: 1.4

###

assay: Apparent volume of distribution in cynomolgus monkey at 1 mg/kg, iv and 5 mg/kg, po; type: ADME, organism-based, Macaca fascicularis; conditions: in vivo, read-out: Vz
measured-attribute: Vd (L/kg)
# unit: L/kg | format: bare number

Query block: Provide measured Vd value, entry: `O=C(Nc1cccnc1)N1CCN(Cc2cccc(Oc3ccc(Cl)cc3)c2)CC1`
Result block: 2.18

###

test: Oral bioavailability in rat at 0.3 to 10 mg/kg; type: ADME, organism-based; conditions: in vivo
measured-attribute: bioavailability (%)
# unit: % | format: bare number

Query block: Provide measured bioavailability value, entry: `O=C(Nc1cccnc1)N1CCN(Cc2cccc(Oc3ccc(Cl)cc3)c2)CC1`
Result block: 53

###

assay: Solubility of the compound in deionized water; assay type: physicochemical
measured-attribute: solubility

Query block: Provide measured solubility value, entry: `Cl.O.O=C(Nc1cccnc1)N1CCN(Cc2cccc(Oc3ccc(Cl)cc3)c2)CC1`
Result block: > 20 mg/mL

###

assay: Clearance in cynomolgus monkey at 1 mg/kg, iv and 5 mg/kg, po; format: ADME, organism-based, Macaca fascicularis; conditions: in vivo
measured-attribute: clearance (mL/min/kg)
# unit: mL/min/kg | format: bare number

Query block: Provide measured clearance value, entry: `O=C(Nc1cccnc1)N1CCN(Cc2cccc(Oc3ccc(Cl)cc3)c2)CC1`
Result block: 25.3

###

assay: Plasma concentration in rat at 3 mg/kg, po at 6 hrs; assay type: ADME, organism-based; parameters: dose 3 mg/kg, route oral
measured-attribute: concentration at 6 h (nM)
# unit: nM | format: bare number

Query block: Provide measured concentration at 6 h value, entry: `O=C(Nc1cccnc1)N1CCN(Cc2cccc(Oc3ccc(Cl)cc3)c2)CC1`
Result block: 600

###

assay: Oral bioavailability in Beagle dog at 5 mg/kg; format: ADME, organism-based, Canis lupus familiaris; details: in vivo
measured-attribute: bioavailability (%)
# unit: % | format: bare number

Query block: Provide measured bioavailability value, entry: `O=C(Nc1cccnc1)N1CCN(Cc2cccc(Oc3ccc(Cl)cc3)c2)CC1`
Result block: 39

###

molecular target: Fatty-acid amide hydrolase 1 (Homo sapiens, UniProt O00519); assay: Inhibition of human FAAH after 1 hr
Sequence (O00519 whole entry): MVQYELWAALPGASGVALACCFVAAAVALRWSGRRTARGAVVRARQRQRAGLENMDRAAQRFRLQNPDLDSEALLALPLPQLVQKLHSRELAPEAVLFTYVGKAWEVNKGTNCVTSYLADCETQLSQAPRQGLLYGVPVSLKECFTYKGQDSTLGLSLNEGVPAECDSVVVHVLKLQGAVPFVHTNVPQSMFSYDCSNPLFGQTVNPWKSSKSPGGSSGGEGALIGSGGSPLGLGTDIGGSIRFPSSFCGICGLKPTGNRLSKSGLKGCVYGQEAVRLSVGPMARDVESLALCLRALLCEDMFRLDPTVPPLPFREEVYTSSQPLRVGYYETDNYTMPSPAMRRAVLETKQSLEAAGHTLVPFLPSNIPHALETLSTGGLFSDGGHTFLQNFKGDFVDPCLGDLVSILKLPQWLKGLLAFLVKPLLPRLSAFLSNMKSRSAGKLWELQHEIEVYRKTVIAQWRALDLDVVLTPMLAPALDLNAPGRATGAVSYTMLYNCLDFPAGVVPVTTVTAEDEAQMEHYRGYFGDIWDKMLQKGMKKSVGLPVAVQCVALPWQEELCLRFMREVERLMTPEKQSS
measured-attribute: pIC50
Value format note: pIC50 is -log10 of concentration (mol/L); just state the number.

Example compounds with recorded pIC50:
{"columns": ["smi", "pIC50"],
 "data": [
  ["O=C(Nc1ccccn1)N1CCN(Cc2cccc(Oc3ccc(Cl)cc3)c2)CC1", 7.92],
  ["O=C(Nc1ccccc1)N1CCN(Cc2ccc(Cl)cc2)CC1", 6.89]
]}

Query block: Provide measured pIC50 value, entry: `Cc1ccc(Oc2cccc(CN3CCN(C(=O)Nc4ccccc4)CC3)c2)cc1`
Result block: 7.96

Query block: Provide measured pIC50 value, entry: `O=C(Nc1ccccc1)N1CCN(Cc2ccc(C(F)(F)F)cc2)CC1`
Result block: 7.30

Query block: Provide measured pIC50 value, entry: `O=C(Nc1ccncn1)N1CCN(Cc2cccc(Oc3ccc(Cl)cc3)c2)CC1`
Result block: 7.39

Query block: Provide measured pIC50 value, entry: `N#Cc1cccc(CN2CCN(C(=O)Nc3ccccc3)CC2)c1`
Result block: 5.18

Query block: Provide measured pIC50 value, entry: `COc1ccc(CN2CCN(C(=O)Nc3ccccc3)CC2)cc1`
Result block: 6.31

Query block: Provide measured pIC50 value, entry: `O=C(Nc1ccccc1)N1CCN(Cc2cccc(F)c2)CC1`
Result block: 5.61

Query block: Provide measured pIC50 value, entry: `O=C(Nc1ccccc1)N1CCN(Cc2ccc(F)cc2)CC1`
Result block: 5.56

Query block: Provide measured pIC50 value, entry: `O=C(Nc1ccccc1)N1CCN(Cc2ccc(Oc3ccccc3)cc2)CC1`
Result block: 5.55
